Each record here notes measured TGI.
System: UACC-62 melanoma
Experiment: NCI tumour cell line growth inhibition, 48 h

{"compound": "N#Cc1ccc(C2ON=C(c3ccccc3)N2C23CC4CC(CC(C4)C2)C3)cc1 (stereo not given)", "relation.qualifier": ">", "TGI, µM": 10}
{"compound": "COc1cccc(S(=O)(=O)NC2=NCCN2C(=S)SN2CCn3c2nsc3=S)c1", "relation.qualifier": ">", "TGI, µM": 100}
{"compound": "NC(=O)c1ncn(C2C=CC(CP(=O)(O)O)C2)c1N (stereo not given)", "relation.qualifier": ">", "TGI, µM": 100}
{"compound": "c1cc(OCCN2CCCC2)ccc1CNc1ccc2nc(CCC3CCCCC3)[nH]c2c1", "relation.qualifier": "=", "TGI, µM": 3.33}
{"compound": "Nc1nc(Sc2ccc([N+](=O)[O-])c3nonc23)c2ncn(C3OC(CO)C(O)C3O)c2n1 (stereo not given)", "relation.qualifier": "=", "TGI, µM": 3.59}

---

Each record here notes measured TGI.
Tested on: SR leukemia
Experiment: NCI tumour cell line growth inhibition, 48 h
recorded.endpoint: TGI

{"compound": "O=C1OC(c2ccc(O)cc2)(c2ccc(O)cc2)c2ccc(Cl)c3cccc1c23 (tested in a mixture with another compound)", "recorded.endpoint": "TGI", "observed.result": "28.4 µM"}
{"compound": "O=CCCn1[nH]c(=O)ccc1=O", "recorded.endpoint": "TGI", "observed.result": "> 100 µM"}
{"compound": "Cn1cc(NC(=O)Nc2cc(C(=O)Nc3cc(C(=O)Nc4ccc5cc(S(=O)(=O)O)cc(S(=O)(=O)O)c5c4)n(C)c3)n(C)c2)cc1C(=O)Nc1cc(C(=O)Nc2ccc3cc(S(=O)(=O)O)cc(S(=O)(=O)O)c3c2)n(C)c1", "recorded.endpoint": "TGI", "observed.result": "> 100 µM"}
{"compound": "COc1cc(/C=N/NC(=O)c2c(Cl)c(Cl)c(Cl)c(Cl)c2-c2nc3ccc(C(=O)c4ccccc4)cc3[nH]2)ccc1O", "recorded.endpoint": "TGI", "observed.result": "54.4 µM"}
{"compound": "CC1OC(n2cc(F)c(=O)[nH]c2=O)CCC1=O (centres undefined)", "recorded.endpoint": "TGI", "observed.result": "> 100 µM"}
{"compound": "CCC1C(NC(=O)OC)C(=O)N1[C@@H](C)c1ccccc1 (some centres undefined)", "recorded.endpoint": "TGI", "observed.result": "> 100 µM"}
{"compound": "COCN1C(=O)[C@@H]2C[C@@H](O)CN2C(=O)c2ccccc21", "recorded.endpoint": "TGI", "observed.result": "> 100 µM"}
{"compound": "Cc1ccc(S(=O)(=O)C2=Cc3ccccc3C2(O)c2ccccc2)cc1 (centres undefined)", "recorded.endpoint": "TGI", "observed.result": "92 µM"}
{"compound": "Cc1cccc2c(N)c3cccc(C(=O)NCC[N+](C)(C)Cc4ccccc4[N+](=O)[O-])c3nc12", "recorded.endpoint": "TGI", "observed.result": "2.09 µM"}

---

System: HL-60(TB) leukemia
Assay: NCI tumour cell line growth inhibition, 48 h

{"molecule": "O=C1/C(=C/c2ccccc2Cl)COc2ccc(Br)cc21", "TGI": "> 100 µM"}
{"molecule": "CCCCCN(CCCCC)CCC[C@@H](C)[C@H]1CC[C@H]2[C@@H]3[C@H](OCCCN)C[C@@H]4C[C@H](OCCCN)CC[C@]4(C)[C@H]3C[C@H](OCCCN)[C@]12C", "TGI": "5.81 µM"}
{"molecule": "Cc1ccc(-c2cc(C(=O)Nc3ccc(S(=O)(=O)N4CCCCC4)cc3)[nH]n2)c(O)c1", "TGI": "> 100 µM"}
{"molecule": "COc1cc(-n2cc(-c3ccc(Cl)cc3)n(-c3ccccc3)c2=O)cc(OC)c1OC", "TGI": "> 47.6 µM"}
{"molecule": "CCCN(CCC)c1ccc(/C=N/NC(=O)c2cccnc2)c(C)c1", "TGI": "39.5 µM"}
{"molecule": "CCOC(=O)C1CC(=O)C=C2CCCCC21 (configuration not stated)", "TGI": "> 100 µM"}
{"molecule": "CSc1nc(-c2ccccc2)[nH]c(=O)n1", "TGI": "> 100 µM"}
{"molecule": "Nc1nc(Sc2ccc([N+](=O)[O-])c3nonc23)c2ncn(C3OC(CO)C(O)C3O)c2n1 (configuration not stated)", "TGI": "23.5 µM"}
{"molecule": "Cn1c(-c2ccccc2)cc(-c2ccc3c(c2)OCO3)c1-c1ccsc1", "TGI": "> 100 µM"}
{"molecule": "COc1ccccc1C#C/C=C\\C#Cc1ccccc1C#N", "TGI": "> 100 µM"}
{"molecule": "COc1ccc2cc3c4cc(OC)c(OC)cc4ccn3c2c1", "TGI": "> 100 µM"}
{"molecule": "Oc1nc(N2CCOCC2)sc1/C=C1\\C=Nc2ccccc21", "TGI": "> 100 µM"}
{"molecule": "Cc1nc2ccccc2c(=O)n1/N=C(\\N=Nc1ccccc1)c1ccccc1Cl", "TGI": "> 100 µM"}
{"molecule": "CCN1/C(=C/C(C)=C/c2sc3ccc4ccccc4c3[n+]2CC)Sc2ccc3ccccc3c21", "TGI": "2.68 µM"}
{"molecule": "C=CCCn1nc(-c2ccccc2)oc1=O", "TGI": "> 100 µM"}
{"molecule": "C[C@]12CC[C@H]3[C@@H](CC=C4C[C@@H](O)CC[C@@]43C)[C@@H]1C/C(=C\\c1ccncc1)[C@@H]2O", "TGI": "31 µM"}
{"molecule": "Cc1cccc2c(=O)c3c(sc12)c(NCCCNCCO)nc1ccccc13", "TGI": "3.49 µM"}
{"molecule": "CN(C)CC1(C)CC/C(=C\\c2ccc(Cl)cc2)C1=O (configuration not stated)", "TGI": "> 100 µM"}
{"molecule": "O=C(N/C(=C\\c1ccccc1)c1nc2ccccc2c(=O)o1)c1ccccc1", "TGI": "> 100 µM"}
{"molecule": "CCn1nc(C2CCN(C(=O)CCO)CC2)nc1-c1cnc(N)c(-c2nnc(C(C)(C)C)o2)n1", "TGI": "97.5 µM"}
{"molecule": "Cc1cc(-c2nc3sc(C)cn3c2/C=N/N=C(N)N)c(C)s1", "TGI": "> 100 µM"}
{"molecule": "C=C(CN(C)C)C(=O)c1ccccc1OC", "TGI": "> 35.8 µM"}
{"molecule": "COc1ccc(OC2(c3cc(OC)ccc3OC)OC(=O)c3ccccc32)cc1 (configuration not stated)", "TGI": "> 100 µM"}
{"molecule": "COc1ccc2c(=O)c3ccoc3[nH]c2c1", "TGI": "> 100 µM"}
{"molecule": "Cc1n[nH]c(=O)n1C1CC1", "TGI": "> 100 µM"}
{"molecule": "O=C(NCCCCCCCCNC(=O)Nc1cccc2ccccc12)Nc1cccc2ccccc12", "TGI": "> 100 µM"}
{"molecule": "Nc1ccc(Oc2ccc(C34CC5CC(C3)CC(c3ccc(Oc6ccc(N)cc6C(F)(F)F)cc3)(C5)C4)cc2)c(C(F)(F)F)c1", "TGI": "> 100 µM"}
{"molecule": "N#C/C(c1nc2ccccc2[nH]1)=c1\\s/c(=C/c2ccccc2)c(=O)n1-c1ccccc1", "TGI": "> 100 µM"}
{"molecule": "Cc1ncc(C(=O)Nc2ccc(CN3CCN(C)CC3)c(C(F)(F)F)c2)cc1C#Cc1cnc(N)c2ccc(C#N)cc12", "TGI": "> 100 µM"}
{"molecule": "CCOC(=O)c1c(CN2CCNCC2)nc2ccc(Cl)cc2c1-c1ccccc1", "TGI": "4.38 µM"}
{"molecule": "COC(=O)c1c(O)ccc2c1c1c(n2CCc2ccc(OC)c(OC)c2)C(=O)c2ccccc2C1=O", "TGI": "59 µM"}
{"molecule": "OCc1ccc(-c2nc(-c3ccc4c(c3)OCO4)c(-c3ccccn3)[nH]2)cc1", "TGI": "> 25 µM"}
{"molecule": "C[n+]1c2ccccc2c(N=[N+]=[N-])c2ccccc21", "TGI": "> 10 µM"}
{"molecule": "COc1cc2c3c(n(CCCN=[N+]=[N-])c(=O)c2cc1OC)-c1ccc([N+](=O)[O-])cc1C3=O", "TGI": "> 100 µM"}
{"molecule": "CC1(C)/C(=N\\O)C2(OS(=O)(=O)C(F)(F)F)CCC1C2 (configuration not stated)", "TGI": "> 100 µM"}
{"molecule": "COCN1C(=O)[C@@H]2C[C@@H](O)CN2C(=O)c2ccccc21", "TGI": "> 100 µM"}
{"molecule": "NC(=O)N/N=C\\CC(O)(C(F)(F)Cl)C(F)(F)Cl", "TGI": "> 10 µM"}
{"molecule": "CN1CCc2ccccc2C1Cc1ccccc1NC(=O)c1sc2ccccc2c1Cl (configuration not stated)", "TGI": "> 100 µM"}
{"molecule": "CCOC(=O)c1cc(=O)c2cccc3c2n1CCS3", "TGI": "> 100 µM"}
{"molecule": "CCN(CC)CCCNc1ccc([N+](=O)[O-])c2nc3ccccc3c(N)c12", "TGI": "2.92 µM"}
{"molecule": "O=C(O)c1cc2ccccc2c(N=Nc2ccc(S(=O)(=O)Nc3ccccn3)cc2)c1O", "TGI": "> 100 µM"}
{"molecule": "CC1OC(n2cc(F)c(=O)[nH]c2=O)CCC1=O (configuration not stated)", "TGI": "> 100 µM"}

Source of measurements: PubChem BioAssay (NCI)
